System name: Tyrosine-protein kinase ABL1 (Homo sapiens)
Sequence (P00519 whole entry): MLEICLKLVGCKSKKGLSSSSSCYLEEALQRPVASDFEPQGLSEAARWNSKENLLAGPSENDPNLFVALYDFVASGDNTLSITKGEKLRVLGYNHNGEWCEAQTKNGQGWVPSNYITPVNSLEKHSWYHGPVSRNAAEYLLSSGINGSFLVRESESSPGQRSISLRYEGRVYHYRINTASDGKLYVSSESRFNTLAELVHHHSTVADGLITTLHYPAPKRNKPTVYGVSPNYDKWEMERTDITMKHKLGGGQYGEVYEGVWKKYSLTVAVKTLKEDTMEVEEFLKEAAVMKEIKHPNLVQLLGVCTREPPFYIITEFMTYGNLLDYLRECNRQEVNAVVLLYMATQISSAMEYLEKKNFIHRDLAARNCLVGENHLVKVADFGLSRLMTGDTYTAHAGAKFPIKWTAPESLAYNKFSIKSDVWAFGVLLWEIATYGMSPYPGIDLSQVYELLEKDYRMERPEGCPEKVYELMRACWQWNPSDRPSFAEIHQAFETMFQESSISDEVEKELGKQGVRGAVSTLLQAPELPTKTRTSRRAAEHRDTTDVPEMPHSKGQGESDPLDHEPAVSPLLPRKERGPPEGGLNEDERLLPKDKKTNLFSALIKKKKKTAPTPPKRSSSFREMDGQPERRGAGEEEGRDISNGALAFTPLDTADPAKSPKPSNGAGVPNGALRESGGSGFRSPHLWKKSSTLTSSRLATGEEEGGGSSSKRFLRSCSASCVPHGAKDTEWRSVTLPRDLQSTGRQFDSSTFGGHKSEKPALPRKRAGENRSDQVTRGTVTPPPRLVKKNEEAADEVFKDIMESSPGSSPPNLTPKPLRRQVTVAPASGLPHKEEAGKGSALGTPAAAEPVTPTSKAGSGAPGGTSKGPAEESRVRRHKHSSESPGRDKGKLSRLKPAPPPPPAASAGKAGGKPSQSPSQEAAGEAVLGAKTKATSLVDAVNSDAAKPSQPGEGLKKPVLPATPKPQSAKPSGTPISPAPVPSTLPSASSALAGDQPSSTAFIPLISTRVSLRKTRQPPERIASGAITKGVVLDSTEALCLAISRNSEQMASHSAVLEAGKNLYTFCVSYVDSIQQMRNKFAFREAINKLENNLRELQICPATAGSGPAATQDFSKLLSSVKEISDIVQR
pIC50: −log10 of the molar value.

- Molecule: "Cc1ccc(NC(=O)c2cccc(C(F)(F)F)c2)cc1-c1ccc2nc(Nc3ccc(OCCN)cc3)ncc2c1"
  System name: "Tyrosine-protein kinase ABL1 (Homo sapiens)"
  pIC50: "> 8.70"

###

System name: Interleukin-1 receptor-associated kinase 4 (Homo sapiens, UniProt Q9NWZ3)
Sequence (Q9NWZ3 whole entry): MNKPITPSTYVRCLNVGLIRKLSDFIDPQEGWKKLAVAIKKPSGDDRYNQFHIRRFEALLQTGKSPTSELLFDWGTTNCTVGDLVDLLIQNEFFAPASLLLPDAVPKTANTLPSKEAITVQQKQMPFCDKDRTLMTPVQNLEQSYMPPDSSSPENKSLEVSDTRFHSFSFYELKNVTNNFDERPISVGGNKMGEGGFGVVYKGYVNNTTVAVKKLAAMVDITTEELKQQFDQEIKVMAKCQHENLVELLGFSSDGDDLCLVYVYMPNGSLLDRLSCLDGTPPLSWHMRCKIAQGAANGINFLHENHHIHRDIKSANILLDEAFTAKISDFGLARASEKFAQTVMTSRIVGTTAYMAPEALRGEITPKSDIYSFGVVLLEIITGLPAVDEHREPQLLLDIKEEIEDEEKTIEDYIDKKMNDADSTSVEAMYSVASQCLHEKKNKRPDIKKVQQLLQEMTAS
pIC50: −log10 of the molar value.

- Compound: "Cc1ccc(NC(=O)c2cccc(C(F)(F)F)c2)cc1-c1ccc2nc(Nc3ccc(OCCN)cc3)ncc2c1 [Kinase inhibitor, 5]"
  pIC50: "< 5.00"

###

System name: UniProt:P41240
Sequence (P41240 whole entry): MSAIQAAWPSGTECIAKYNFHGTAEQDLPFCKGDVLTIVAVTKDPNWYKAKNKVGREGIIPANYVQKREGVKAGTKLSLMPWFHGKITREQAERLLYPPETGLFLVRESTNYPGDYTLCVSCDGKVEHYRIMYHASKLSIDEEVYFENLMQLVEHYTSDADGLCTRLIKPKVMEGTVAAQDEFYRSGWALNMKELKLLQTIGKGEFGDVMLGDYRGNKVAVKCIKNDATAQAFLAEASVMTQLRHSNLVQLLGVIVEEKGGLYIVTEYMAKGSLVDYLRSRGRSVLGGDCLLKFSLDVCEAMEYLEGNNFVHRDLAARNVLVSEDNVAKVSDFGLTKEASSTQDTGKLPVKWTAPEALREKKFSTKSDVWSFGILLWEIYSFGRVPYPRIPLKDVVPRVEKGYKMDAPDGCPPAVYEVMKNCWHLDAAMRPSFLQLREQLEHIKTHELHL
pIC50: −log10 of the molar value.

- Molecule: "Cc1ccc(NC(=O)c2cccc(C(F)(F)F)c2)cc1-c1ccc2nc(Nc3ccc(OCCN)cc3)ncc2c1"
  pIC50: 8.08
